tested on: U251 CNS; assay: NCI-60 one-dose screen, 48 h (100 = growth as untreated, 0 = no growth, -100 = all killed); conditions: 10 µM unless noted
Compounds without any hit were thinned out: in the full panel of roughly 83,000, 20% have a hit. Activity calls are given as the source filed them. Rule for the calls: active = growth percent below 10; inactive = the rest.
Measure: growth

Please review the following examples before continuing.
Structure String: O=C1NC(=O)c2cc([N+](=O)[O-])cc3cccc1c23
Observed Result: 82.3% (inactive)
--
Structure String: COc1ccc(C(=O)c2nccc3cc(OC)c(OC)cc23)cc1OC
Observed Result: 98.6% (inactive)
--
Structure String: Cc1ccc(-n2nc3n(/c2=N\C(=O)NS(=O)(=O)c2ccc(C)cc2)CCN3C2=NCCN2)cc1
Observed Result: 105% (inactive)

Query: Entry under review: "CC(=O)CC(=O)SC1=NCCS1" . Reported growth?
Result: 102% (inactive)

Query: Entry under review: "Cc1cnc(N)nc1OCCNC(=O)c1cccc(-c2ccc(S(=O)(=O)Nc3ccc4c(c3)N(C(=O)C3CC3)CCC4)cc2)c1" . Reported growth?
Result: 88.4% (inactive)

Query: Entry under review: "CC(C)c1ccc(C(=O)Nc2nc3ccc(O)cc3s2)cc1" . Reported growth?
Result: 58.4% (inactive)

Query: Entry under review: "CC(C)=CC/C=C(/C)[C@H]1CC[C@]2(C)[C@@H]1CC[C@@H]1[C@@]3(C)CC/C(=N/O)C(C)(C)[C@@H]3CC[C@]12C" . Reported growth?
Result: 50.9% [100 µM] (inactive)

Query: Entry under review: "COC(=O)C(=Cc1ccccc1[N+](=O)[O-])C(=O)OC" . Reported growth?
Result: 23.7% (inactive)

Query: Entry under review: "O=C(Nc1cccc2cccnc12)c1cc(C(=O)c2ccc(Cl)cc2)n2ccc(-c3ccncc3)cc12" . Reported growth?
Result: 103% (inactive)

Query: Entry under review: "O=C(NNc1ccc(-c2ccccc2)nn1)c1ccccc1" . Reported growth?
Result: 101% (inactive)

---

system: SN12C renal; assay: NCI-60 one-dose screen, 48 h; settings: 10 µM unless noted
About 83,000 compounds went through this panel and 20% of them were active in at least one assay; those are over-represented in the sample as a whole. Calls of active or inactive are those of the source. How the source made its calls: active means growth percent below 10; inactive means the rest.
Response enum: 1.0 for active, 0.0 for inactive

# example entries with known answers
Molecule: O=C(Nc1ccc(Oc2ccc(F)cc2)c(Cl)c1)c1cnccn1
Study System: SN12C renal
Category Label: 0.0
//
Molecule: CSc1nc(N)c(N=Nc2ccc(S(=O)(=O)Nc3nnc(C)s3)cc2)c(=O)[nH]1
Study System: SN12C renal
Category Label: 0.0

Query: Which outcome was assigned to COc1ccc2nc3c(cc2c1)C(=O)CC(C(F)(F)F)C3 (stereo not given) in this test?
Result: 0.0

Query: Which outcome was assigned to "Fc1cc2[nH]ncc2c2c3c(c(-c4cn[nH]c4)nc12)CCCC3" in this test?
Result: 1.0

Query: Which outcome was assigned to "Cc1nc(-c2ccccc2)sc1CC#N" in this test?
Result: 0.0

---

tested on: NCI/ADR-RES ovarian; assay: NCI-60 one-dose screen, 48 h; settings: 10 µM unless noted
About 83,000 compounds went through this panel and 20% of them were active in at least one assay; those are over-represented in the sample as a whole. Calls of active or inactive are those of the source. Rule for the calls: active = growth percent below 10; inactive = the rest.
Response enum: T = active, F = inactive

# example entries with known answers
Compound: CC(C)C1=NOC(=O)C1=Cc1cn(-c2ccccc2)nc1-c1cccc([N+](=O)[O-])c1
Category Label: F
--
Compound: COc1ccc2nc3cc(Cl)ccc3c(Nc3ccc(O)c(CN4CCCC4)c3)c2c1
Category Label: T
--
Compound: CCN(CC)CCCC(C)Nc1ccnc2cc(Cl)c(SCc3ccccc3)cc12 (stereo not drawn)
Category Label: T
--
Compound: CCN(CC)CC(C)Nc1ccc(C)c2sc3ccccc3c(=O)c12 (stereo not drawn)
Category Label: F
--
Compound: CCOC(=O)COc1c(C)cc(SSc2cc(C)c(OCC(=O)OCC)c(C)c2)cc1C
Category Label: F

Query: Which outcome was assigned to "C[C@]12CCc3c(ccc4cc(O)ccc34)[C@@H]1CC[C@H]2O" in this test?
Result: F

Query: Which outcome was assigned to CCCC(NC(=O)OCc1ccccc1)C(=O)O (stereo not drawn) in this test?
Result: F

Query: Which outcome was assigned to C#CC(OC(=O)N(C)C)(c1ccccc1)c1ccc(F)cc1 (stereo not drawn) in this test?
Result: F

Query: Which outcome was assigned to "O=[N+]([O-])c1ccc(O)c(-c2nc3ccccc3s2)c1" in this test?
Result: F

Query: Which outcome was assigned to "Cc1ccc(S(=O)(=O)n2cc(C(=O)C(=O)N3CCCCC3)c3ccccc32)cc1" in this test?
Result: F

Query: Which outcome was assigned to "COc1ccc(-c2cc(-c3ccccc3)nc(SCCCCCC(=O)NO)n2)cc1" in this test?
Result: F
